Where do the numbers come from? From the kinase profiling compilation of Christmann-Franck et al. (2016).

Biological target: ADRBK1 (human)
Test: radiometric filter-binding kinase assay, Kinase HotSpot
Conditions: compound 0.5 µM; ATP 10 µM
# residual activity per record follows
Please state the figure in %; there is no need to write the unit.

CCc1nc(-c2ccc(OC)cc2)[nH]c1-c1ccncc1	101

Input line: Please report residual activity for the following molecule: O=c1cc(N2CCOCC2)oc2c(-c3ccccc3)cccc12
Output line: 106

Input line: Please report residual activity for the following molecule: O=C1NC(=O)c2cc(Nc3ccc(F)cc3)c(Nc3ccc(F)cc3)cc21
Output line: 104

Input line: Please report residual activity for the following molecule: Cc1cc(Nc2nc(-c3ccccc3)nc3ccccc23)n[nH]1
Output line: 106

Input line: Please report residual activity for the following molecule: O=C(c1ccccc1)c1ccc(N2CCOCC2)cc1O
Output line: 99.6

Input line: Please report residual activity for the following molecule: N#C/C(=C1/Nc2ccccc2S1)c1ccnc(NCCc2cccnc2)n1
Output line: 103

Input line: Please report residual activity for the following molecule: c1ccc(-c2cnc(Nc3ccc(OCCN4CCCC4)cc3)s2)cc1
Output line: 95.8

Input line: Please report residual activity for the following molecule: CCCCc1c(-c2ccc(O)cc2)[nH]c2nccnc12
Output line: 76.5

Input line: Please report residual activity for the following molecule: COc1cc2c(N3CCN(C(=O)Nc4ccc(OC(C)C)cc4)CC3)ncnc2cc1OCCCN1CCCCC1
Output line: 98

Input line: Please report residual activity for the following molecule: N#Cc1c(NC(=O)c2cccc3ccccc23)sc2c1CCCC2
Output line: 105

Input line: Please report residual activity for the following molecule: COc1cc2c(Nc3ccc(Br)cc3F)ncnc2cc1OCC1CCN(C)CC1
Output line: 92.2
